conditions: in n-propanol, 273.15 K
PROPERTY MEASURED: solubility (mole fraction)

// query solubility (mole fraction) value for entry OCc1ccc(O[C@@H]2O[C@H](CO)[C@@H](O)[C@H](O)[C@H]2O)cc1 0.00074

* * *

conditions: in isopropanol, 293.15 K
PROPERTY MEASURED: solubility (mole fraction)
Answer with the value's number alone.

Look up solubility (mole fraction): OCc1ccc(O[C@@H]2O[C@H](CO)[C@@H](O)[C@H](O)[C@H]2O)cc1 0.00235

* * *

details: in n-propanol, 283.15 K
PROPERTY MEASURED: solubility (mole fraction)
Write the value as a bare number.

May I ask what solubility (mole fraction) has been recorded for OCc1ccc(O[C@@H]2O[C@H](CO)[C@@H](O)[C@H](O)[C@H]2O)cc1 ? 0.00115
